IC50 overview
target: NEU4 (Homo sapiens, UniProt Q8WWR8); test: IC50 inhibition assay using 4MU-NANA as the substrate, NEU4; assay type: biochemical; set-up: GST; made in house; host or cells: E. coli; settings: 4MU-NANA as the substrate; read-out: IC50 NEU4
Sequence (Q8WWR8 whole entry): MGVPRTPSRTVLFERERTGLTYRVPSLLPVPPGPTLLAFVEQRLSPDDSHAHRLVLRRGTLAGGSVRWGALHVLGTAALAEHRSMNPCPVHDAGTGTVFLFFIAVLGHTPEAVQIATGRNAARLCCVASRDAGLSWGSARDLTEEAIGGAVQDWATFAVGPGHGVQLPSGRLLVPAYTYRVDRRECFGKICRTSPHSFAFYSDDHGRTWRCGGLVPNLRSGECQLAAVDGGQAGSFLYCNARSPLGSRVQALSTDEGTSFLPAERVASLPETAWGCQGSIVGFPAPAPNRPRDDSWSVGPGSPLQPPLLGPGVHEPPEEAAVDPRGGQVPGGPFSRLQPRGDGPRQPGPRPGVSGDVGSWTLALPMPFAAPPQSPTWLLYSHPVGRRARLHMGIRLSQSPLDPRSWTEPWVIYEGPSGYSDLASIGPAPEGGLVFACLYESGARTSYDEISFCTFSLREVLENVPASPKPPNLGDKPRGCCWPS
Reply numerically in µM, unit not repeated.

>>> experimental_result("CCCCCC(=O)NC[C@@H](O)[C@@H](O)[C@@H]1OC(C(=O)O)=C[C@H](O)[C@H]1NC(=O)CC")
210
>>> experimental_result("CC(=O)N[C@H]1[C@H]([C@H](O)[C@H](O)Cn2cc(-c3ccc(N)cc3)nn2)OC(C(=O)O)=C[C@@H]1O")
12
>>> experimental_result("CC(=O)N[C@@H]1C(O)C=C(C(=O)O)OC1C(O)C(O)Cn1cc(-c2ccc(-c3ccccc3)cc2)nn1 (some centres unmarked)")
0.52

The reported value for CC(=O)N[C@@H]1C(O)C=C(C(=O)O)OC1C(O)C(O)Cn1cc(-c2ccc(NC(=O)c3ccccc3)cc2)nn1 (some centres unmarked) in terms of IC50 is 3.7

The reported value for O=C(Cn1cc(-c2ccc(C(F)(F)F)cc2)nn1)N[C@@H]1C(O)C=C(C(=O)O)OC1C(O)C(O)CO (some centres unmarked) in terms of IC50 is 300

The reported value for CCCCCC(=O)N[C@H]1[C@H]([C@H](O)[C@H](O)CO)OC(C(=O)O)=C[C@@H]1O in terms of IC50 is 440

The reported value for CC(=O)N[C@@H]1C(O)C=C(C(=O)O)OC1C(O)C(O)CNC(=O)CCC(C)C (some centres unmarked) in terms of IC50 is 150

---

tested on: NEU1, NEU2, NEU3, NEU4; assay: Isoenzyme specificity/selectivity from 4MU-NANA IC50 across the four human neuraminidases; format: biochemical; details: isoenzyme(s) the compound is specific for; dual (bispecific) when ratio of IC50 is about 3 or less
measurement_type: Target

Field: example entries. Status: answers known.
>>> experimental_result("CC(=O)N[C@H]1[C@H]([C@H](O)[C@H](O)Cn2cc(-c3ccc(C(F)(F)F)cc3)nn2)OC(C(=O)O)=C[C@@H]1O [7g]")
"NEU3/ NEU4"
>>> experimental_result("CC(=O)N[C@H]1[C@H]([C@H](O)[C@H](O)Cn2cc(-c3ccc(N)cc3)nn2)OC(C(=O)O)=C[C@@H]1O [7c]")
"NEU3/ NEU4"
>>> experimental_result("CC(=O)N[C@H]1[C@H]([C@H](O)[C@H](O)Cn2cc(-c3ccc(N(C)C)cc3)nn2)OC(C(=O)O)=C[C@@H]1O [7a]")
"NEU3/ NEU4"
>>> experimental_result("COc1ccc(-c2cn(CC(=O)N[C@@H]3C(O)C=C(C(=O)O)OC3C(O)C(O)CO)nn2)cc1 (stereo partly shown) [compound 44]")
"NEU2"
>>> experimental_result("CCCCC(=O)N[C@H]1[C@H]([C@H](O)[C@H](O)CNC(C)=O)OC(C(=O)O)=C[C@@H]1O [compound 67]")
"NEU1"

The reported value for CCCCC(=O)NC[C@@H](O)[C@@H](O)[C@@H]1OC(C(=O)O)=C[C@H](O)[C@H]1NC(=O)CC [compound 65] in terms of Target is NEU1

The reported value for CC(=O)Nc1ccc(C(=O)NC[C@@H](O)[C@@H](O)[C@@H]2OC(C(=O)O)=C[C@H](O)[C@H]2NC(C)=O)cc1 [compound 58] in terms of Target is NEU1

---

IC50 overview
molecular target: NEU1 (Homo sapiens); construct: made in house; host or cells: HEK293 (lentiviral transduction), crude lysate; experiment: IC50 inhibition assay using 4MU-NANA as the substrate, NEU1; format: biochemical; conditions: target isoenzyme NEU1; 4MU-NANA substrate; read-out: IC50 [μM] NEU1
Reply numerically in µM, unit not repeated.

The reported value for CCCCCC(=O)N[C@H]1[C@H]([C@H](O)[C@H](O)CO)OC(C(=O)O)=C[C@@H]1O in terms of IC50 is 0.4

The reported value for CCCCC(=O)N[C@@H]1C(O)C=C(C(=O)O)OC1C(O)C(O)CO (some centres unmarked) in terms of IC50 is 0.99

---

molecular target: NEU4 (Homo sapiens, UniProt Q8WWR8); assay: IC50 inhibition assay using 4MU-NANA as the substrate, NEU4; type: biochemical; set-up: GST; made in house; host or cells: E. coli; details: 4MU-NANA as the substrate; read-out: IC50 NEU4
measurement_type: pIC50
Would you please state pIC50, meaning minus log10 of the concentration in mol/L, as a bare number?

>>> experimental_result("CC(=O)N[C@H]1[C@H]([C@H](O)[C@H](O)Cn2cc(-c3ccc(N(C)C)cc3)nn2)OC(C(=O)O)=C[C@@H]1O")
4.55

Let's switch to this molecule now.
The reported value for CC(=O)N[C@H]1[C@H]([C@H](O)[C@H](O)Cn2cc(-c3ccc(F)cc3)nn2)OC(C(=O)O)=C[C@@H]1O in terms of pIC50 is 5.89

---

target: NEU3 (Homo sapiens, UniProt Q9UQ49); experiment: Ki determination (4MU-NANA), NEU3; details: NEU3 Ki [μM], 4MU-NANA substrate
Sequence (Q9UQ49 whole entry): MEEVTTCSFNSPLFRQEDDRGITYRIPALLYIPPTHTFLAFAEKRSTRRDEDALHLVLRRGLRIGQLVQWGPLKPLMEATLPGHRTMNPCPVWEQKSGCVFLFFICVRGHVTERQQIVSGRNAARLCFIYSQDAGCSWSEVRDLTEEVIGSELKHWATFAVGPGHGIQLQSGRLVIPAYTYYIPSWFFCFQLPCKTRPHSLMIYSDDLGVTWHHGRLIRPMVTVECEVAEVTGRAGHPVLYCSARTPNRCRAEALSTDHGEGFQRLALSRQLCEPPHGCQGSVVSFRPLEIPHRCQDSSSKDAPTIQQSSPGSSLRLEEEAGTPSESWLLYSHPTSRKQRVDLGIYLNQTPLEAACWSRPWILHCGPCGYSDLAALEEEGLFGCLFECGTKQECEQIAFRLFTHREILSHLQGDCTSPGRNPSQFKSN
measurement_type: Ki (µM)
Reply numerically in µM, unit not repeated.

The reported value for CC(=O)N[C@@H]1C(NC(=N)N)C=C(C(=O)O)OC1C(O)C(O)Cn1cc(-c2ccc(-c3ccccc3)cc2)nn1 (stereo partly shown) in terms of Ki is 0.36

---

target: NEU1 (Homo sapiens, UniProt Q99519); construct: made in house; host or cells: HEK293 (lentiviral transduction), crude lysate; experiment: IC50 inhibition assay using 4MU-NANA as the substrate, NEU1; assay type: biochemical; settings: 4MU-NANA as the substrate; read-out: IC50 NEU1
measurement_type: pIC50
Would you please state pIC50, meaning minus log10 of the concentration in mol/L, as a bare number?

Field: example entries. Status: answers known.
>>> experimental_result("CC(=O)N[C@@H]1C(O)C=C(C(=O)O)OC1C(O)C(O)CNC(=O)CC(C)C (stereo partly drawn) [compound 54]")
5.60
>>> experimental_result("CCCCC(=O)NCC(O)C(O)C1OC(C(=O)O)=CC(O)[C@H]1NC(=O)CCCC (stereo partly drawn) [compound 57]")
5.82
>>> experimental_result("CC(=O)N[C@H]1[C@H]([C@H](O)[C@H](O)Cn2cc(-c3ccc(F)cc3)nn2)OC(C(=O)O)=C[C@@H]1O [7f]")
4.00
>>> experimental_result("CC(=O)Nc1cccc(C(=O)NC[C@@H](O)[C@@H](O)[C@@H]2OC(C(=O)O)=C[C@H](O)[C@H]2NC(C)=O)c1 [compound 60]")
5.19
>>> experimental_result("CC(=O)N[C@H]1[C@H]([C@H](O)[C@H](O)CNC(=O)c2cccc(N)c2)OC(C(=O)O)=C[C@@H]1O [compound 61]")
5.19

The reported value for CCCC(=O)NCC(O)C(O)C1OC(C(=O)O)=CC(O)[C@H]1NC(C)=O (stereo partly drawn) [compound 49] in terms of pIC50 is 5.40

The reported value for CCCCCC(=O)NC[C@@H](O)[C@@H](O)[C@@H]1OC(C(=O)O)=C[C@H](O)[C@H]1NC(=O)CCCCC [compound 64] in terms of pIC50 is 5.37

The reported value for CC(C)CCC(=O)N[C@H]1[C@H]([C@H](O)[C@H](O)CO)OC(C(=O)O)=C[C@@H]1NC(=N)N [compound 71] in terms of pIC50 is 4.85

The reported value for CC(C)CCC(=O)N[C@H]1[C@H]([C@H](O)[C@H](O)CO)OC(C(=O)O)=C[C@@H]1O [compound 36] in terms of pIC50 is 5.77

The reported value for O=C(O)C1=C[C@H](O)[C@@H](NC(=O)C2CCC2)[C@H]([C@H](O)[C@H](O)CO)O1 [compound 38] in terms of pIC50 is 4.92

The reported value for CC(=O)N[C@H]1[C@H]([C@H](O)[C@H](O)Cn2cc(-c3ccc(C)cc3)nn2)OC(C(=O)O)=C[C@@H]1O [7d] in terms of pIC50 is 4.29

---

system: NEU1, NEU2, NEU3, NEU4; test: Isoenzyme specificity/selectivity from 4MU-NANA IC50 across the four human neuraminidases; assay type: biochemical; details: isoenzyme(s) the compound is specific for; dual (bispecific) when ratio of IC50 is about 3 or less
measurement_type: Target

>>> experimental_result("O=C(Cn1cc(-c2ccc(F)cc2)nn1)N[C@@H]1C(O)C=C(C(=O)O)OC1C(O)C(O)CO (stereo partly shown)")
"NEU2"
>>> experimental_result("CC(C)C(=O)N[C@H]1[C@H]([C@H](O)[C@H](O)CO)OC(C(=O)O)=C[C@@H]1O")
"NEU1"

Source of measurements: patent US11773129B2
